target: β-glucuronidase (UniProt A3KMY8); assay: β-Glucuronidase inhibition, spectrophotometric p-nitrophenyl-β-D-glucuronide assay; assay type: biochemical; settings: read-out: IC50 (μM) ± SEM, mean of three independent assays
Below is a list of entries, each paired with its recorded IC50 value.
quantity-kind: IC50 (µM)

{"columns": ["compound", "recorded-measurement"],
 "data": [
  ["O=c1[nH]c(-c2ccc([N+](=O)[O-])cc2)nc2ccccc12 [Compound 22, 2-(4-Nitrophenyl)quinazolin-4(3H)-one]", 20.1],
  ["O=c1[nH]c(-c2cccc([N+](=O)[O-])c2)nc2ccccc12 [Compound 21, 2-(3-Nitrophenyl)quinazolin-4(3H)-one]", 50.4],
  ["O=c1[nH]c(-c2ccccc2O)nc2ccccc12 [Compound 2, 2-(2-Hydroxyphenyl)quinazolin-4(3H)-one]", 10],
  ["CN(C)c1ccc(-c2nc3ccccc3c(=O)[nH]2)cc1 [Compound 23]", 5.5],
  ["COc1ccc(-c2nc3ccccc3c(=O)[nH]2)cc1O [Compound 8]", 2.8],
  ["COc1ccc(-c2nc3ccccc3c(=O)[nH]2)cc1 [Compound 10]", 1.1],
  ["O=c1[nH]c(-c2ccc(O)cc2)nc2ccccc12 [Compound 3, 2-(4-Hydroxyphenyl)quinazolin-4(3H)-one]", 22.2]
]}

----------
biological target: β-glucuronidase (UniProt A3KMY8); test: β-Glucuronidase inhibition, spectrophotometric p-nitrophenyl-β-D-glucuronide assay; assay type: biochemical; details: unit inferred

{"columns": ["query-smiles", "IC50, µM"],
 "data": [
  ["COc1cc(-c2nc3ccccc3c(=O)[nH]2)cc(OC)c1OC", 120]
]}

----------
Below is a list of entries, each paired with its recorded % Inhibition value.
target: β-glucuronidase (UniProt A3KMY8); test: β-Glucuronidase inhibition, spectrophotometric p-nitrophenyl-β-D-glucuronide assay; assay type: biochemical; conditions: test concentration not given

{"columns": ["compound", "endpoint-unit", "% Inhibition"],
 "data": [
  ["CN(C)c1ccc(-c2nc3ccccc3c(=O)[nH]2)cc1", "%", 99.6],
  ["O=c1[nH]c(-c2cccc([N+](=O)[O-])c2)nc2ccccc12", "%", 95.1],
  ["O=c1[nH]c(-c2cccc(O)c2)nc2ccccc12 [Compound 4, 2-(3-Hydroxyphenyl)quinazolin-4(3H )-one]", "%", 78.5],
  ["O=c1[nH]c(-c2ccccc2O)nc2ccccc12 [Compound 2, 2-(2-Hydroxyphenyl)quinazolin-4(3H)-one]", "%", 99.1],
  ["COc1cc(-c2nc3ccccc3c(=O)[nH]2)cc(OC)c1OC", "%", 97.6],
  ["COc1ccc(-c2nc3ccccc3c(=O)[nH]2)cc1O", "%", 84.0],
  ["COc1ccc(-c2nc3ccccc3c(=O)[nH]2)cc1", "%", 99.7],
  ["O=c1[nH]c(-c2ccc(O)cc2)nc2ccccc12 [Compound 3, 2-(4-Hydroxyphenyl)quinazolin-4(3H)-one]", "%", 99.6],
  ["O=c1[nH]c(-c2ccc([N+](=O)[O-])cc2)nc2ccccc12", "%", 96.4],
  ["Cc1ccc(-c2nc3ccccc3c(=O)[nH]2)cc1", "%", 96.3]
]}

Recorded values, source patent US20140256754A1.
